Hi, quick share: literature pIC50 data for Prolyl endopeptidase FAP (Homo sapiens, UniProt Q12884), several sources combined.
# STUDY_TARGET: Prolyl endopeptidase FAP (Homo sapiens, UniProt Q12884)
# Sequence (Q12884 whole entry): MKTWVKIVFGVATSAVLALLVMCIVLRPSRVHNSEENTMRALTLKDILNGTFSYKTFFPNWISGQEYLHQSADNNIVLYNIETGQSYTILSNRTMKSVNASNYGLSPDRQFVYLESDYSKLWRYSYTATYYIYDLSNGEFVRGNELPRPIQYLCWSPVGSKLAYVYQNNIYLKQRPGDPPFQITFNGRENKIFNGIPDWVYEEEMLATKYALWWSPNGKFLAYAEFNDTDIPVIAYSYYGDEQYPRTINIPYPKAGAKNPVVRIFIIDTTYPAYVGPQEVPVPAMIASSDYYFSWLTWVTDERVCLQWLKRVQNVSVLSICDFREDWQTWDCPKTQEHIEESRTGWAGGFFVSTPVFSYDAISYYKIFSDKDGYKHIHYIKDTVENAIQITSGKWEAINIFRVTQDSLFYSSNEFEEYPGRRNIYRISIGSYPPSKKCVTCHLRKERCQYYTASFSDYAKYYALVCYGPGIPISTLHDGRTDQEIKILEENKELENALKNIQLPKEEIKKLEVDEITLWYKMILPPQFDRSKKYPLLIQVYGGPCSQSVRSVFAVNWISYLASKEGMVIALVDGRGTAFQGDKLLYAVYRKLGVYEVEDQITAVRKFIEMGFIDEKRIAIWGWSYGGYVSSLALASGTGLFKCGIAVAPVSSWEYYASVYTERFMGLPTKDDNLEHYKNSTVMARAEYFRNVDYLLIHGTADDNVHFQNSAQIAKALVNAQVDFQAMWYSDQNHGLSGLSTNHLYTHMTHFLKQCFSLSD
pIC50: −log10 of the molar value.
READOUT_KIND: pIC50

{"columns": ["MOLECULE", "STUDY_TARGET", "RESULT"],
 "data": [
  ["N[C@H](Cc1cc(F)ccc1F)C1CCN(C2CCCC(C(=O)O)C2)CC1 (stereo not given in full)", "Prolyl endopeptidase FAP (Homo sapiens, UniProt Q12884)", "< 4.46"],
  ["COc1ccc(CCNC(=O)CC(C)(C)NCC(=O)N2CCC[C@H]2C#N)cc1OC", "Prolyl endopeptidase FAP (Homo sapiens, UniProt Q12884)", "< 4.70"],
  ["Cc1ccc(NC(=O)CC(C)(C)NCC(=O)N2CCC[C@H]2C#N)cc1C", "Prolyl endopeptidase FAP (Homo sapiens, UniProt Q12884)", "< 4.70"],
  ["N[C@@H](CC(=O)N1CCn2c(nnc2C(F)(F)F)C1Cc1cc(C(F)(F)F)cc(C(F)(F)F)c1)Cc1cc(F)c(F)cc1F (stereo in doubt; 48a)", "Prolyl endopeptidase FAP (Homo sapiens, UniProt Q12884)", "< 5.00"],
  ["CC(C)(CC(=O)NCCc1ccccn1)NCC(=O)N1CCC[C@H]1C#N", "Prolyl endopeptidase FAP (Homo sapiens, UniProt Q12884)", "< 4.70"],
  ["CC(C)(CC(=O)NCCc1ccc(Cl)c(Cl)c1)NCC(=O)N1CCC[C@H]1C#N", "Prolyl endopeptidase FAP (Homo sapiens, UniProt Q12884)", "< 4.70"],
  ["CC(C)(CC(=O)NC(C)(C)c1ccccc1)NCC(=O)N1CCC[C@H]1C#N", "Prolyl endopeptidase FAP (Homo sapiens, UniProt Q12884)", "< 4.70"],
  ["CSc1ccc(Cc2nc(C(=O)NCC(=O)N3CC(F)(F)C[C@H]3C#N)cs2)cc1", "Prolyl endopeptidase FAP (Homo sapiens, UniProt Q12884)", 7.60],
  ["Cc1nc(CN2C(=O)c3c(nc(N4CCC[C@@H](N)C4)n3CC3CC3)N3CCN=C23)nc2ccccc12", "Prolyl endopeptidase FAP (Homo sapiens, UniProt Q12884)", 5.51],
  ["N[C@H]1C[C@@H](N2CCn3c(nnc3C(F)(F)F)C2)CO[C@@H]1c1cc(F)ccc1F", "Prolyl endopeptidase FAP (Homo sapiens, UniProt Q12884)", "< 4.00"]
]}
